Where do these numbers come from? They come from the supplement of paper PMC12042874.

assay name: amyloid nucleation score (Sup35N fusion, yeast selection) (log enrichment); library NNK3; higher = more nucleation; inactive = no reads after selection;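 also: zero at mode of non-aggregating sequences after 7 days selection at 30°C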
reported endpoint: amyloid nucleation score

Solved entries:
              substance  readout_value
0           SVYPYESYLVW       inactive
1  RCFRLIKVLKLLTVFEIITF       inactive
2           FFLVLNSACME          0.058
3  FMVILMRAISMSKIKSILYH       inactive
4         LVAKRFISYHLIV       inactive
5  LVYKLDVNCYDRNLLDSVEK       inactive

input: // returns reported amyloid nucleation score for input "NIWNWNNRVLFCEAGMGTCI"
output: inactive

input: // returns reported amyloid nucleation score for input "GVLLKVSR"
output: inactive

* * *

assay name: amyloid nucleation score (Sup35N fusion, yeast selection) (log enrichment); library NNK1; higher = more nucleation; inactive = no reads after selection
// N strictly below -0.04 in amyloid nucleation score; Y otherwise

              substance  group_label
0    RHYGGAFQRLYRMSGPMT            N
1  NKFGQSAGYLSTFACAVGIG            Y
2                LRKTFF            Y
3  RCNDAFTFTCRPGWMWKWGK            Y
4       SDFRMTGLLTWYRSI            N
5             LLAVCYVIF            Y
6  RRLSMIMLFNPLSIWCFAQS            Y
7                PCSVVV            N

input: # bool: amyloid nucleation score of "VDVQGICRHISFNIAGA" >= -0.04
output: Y

input: # bool: amyloid nucleation score of "SCTCVQHPDGSYAFEIGAAN" >= -0.04
output: Y

input: # bool: amyloid nucleation score of "SHNVKSWCRYSDGQKGLCKY" >= -0.04
output: Y

input: # bool: amyloid nucleation score of "FDIDDIICIM" >= -0.04
output: N

input: # bool: amyloid nucleation score of "VVKSEVNTVA" >= -0.04
output: Y

input: # bool: amyloid nucleation score of "MWSGDDCSFNDFCYVCDFCK" >= -0.04
output: N

* * *

assay name: amyloid nucleation score (Sup35N fusion, yeast selection) (log enrichment); library NNK1; higher = more nucleation; inactive = no reads after selection
In this section, each of the substances is paired with its reported amyloid nucleation score.
Field format: numeric only.

Solved entries:
In [3]: df
Out[3]:
            substance         reported_endpoint  readout_value
0  KVLGQGYERMDLFIVVFR  amyloid nucleation score         -0.357
1     EGMAARSWDCMYVWG  amyloid nucleation score           0.35
2           QSPKQILWR  amyloid nucleation score           1.11

input: // returns reported amyloid nucleation score for input "YKSVRSVVWWCLRNSLHFVW"
output: 1.91

input: // returns reported amyloid nucleation score for input "PKKLRMYLPMHLSTPKRRLV"
output: 0.565

input: // returns reported amyloid nucleation score for input "ANSVQG"
output: 0.9

input: // returns reported amyloid nucleation score for input "PVCGFRRWKCLPN"
output: 0.318

input: // returns reported amyloid nucleation score for input "LDRVWMYTIRLLQMKAMVLP"
output: 0.497

input: // returns reported amyloid nucleation score for input "RKGSVSQRDYSIDYWGFCRC"
output: 1.37

input: // returns reported amyloid nucleation score for input "ALYKSPLVNRSYAFLYSGA"
output: 0.964

input: // returns reported amyloid nucleation score for input "MQKYPIRGRR"
output: 1.64

input: // returns reported amyloid nucleation score for input "HNFLLYVSSYSFFHRLFMLH"
output: 0.149

input: // returns reported amyloid nucleation score for input "GWAGRVCNRGKTWDIDLRQR"
output: -0.7

input: // returns reported amyloid nucleation score for input "FYCPRIKNVFSEICIC"
output: 3.79

input: // returns reported amyloid nucleation score for input "EGSIMRGWLFICYNLF"
output: -0.244

input: // returns reported amyloid nucleation score for input "VSFNCTNGFRIKHVLWSTDN"
output: 1.09

input: // returns reported amyloid nucleation score for input "WFTAHMCDNHYSTIPNSPRQ"
output: 1

input: // returns reported amyloid nucleation score for input "LCINLVYRKISPALRF"
output: -0.859
